- Tested on: heart muscle
- procedureDetails: Heart muscle uptake and elimination of radiolabelled fatty acids after tail vein injection in mice
- Type: in vivo, NMRI mice
- conditionDescription: mouse, in vivo, iv
Quick reference for Time to Max. Enrichment among some molecules

Record excerpt, results attached:
                                   molecule  measurement
0              O=C(O)CCCCCCCCCCCCCCCC[123I]     0.25 min
1  CCCCCCCCCCCCCCCCC([34Cl])C(=O)O (stereo not drawn) [2-^34m Cl-Stearic acid]        1 min
2               O=C(O)CCCCCCCCCCCCCCC[123I]      0.5 min

QUERY: So what does the record say about Time to Max. Enrichment for `O=C(O)CCCCCCCCCCCCCCCC[77Br]` ?
RESULT: 0.5 min

QUERY: # Time to Max. Enrichment lookup, item CCCCCCCCCCCCCCCCC([77Br])C(=O)O (stereo not drawn)
RESULT: 1 min

QUERY: Look up Time to Max. Enrichment: CCCCCCCCCCCCCCCCC([123I])C(=O)O (stereo not drawn)
RESULT: 0.5 to 1 min
